Tested on: NIH/3T3 fibroblasts
Assay: MTT assay on fibroblasts (selectivity)
Format: cell-based, murine
Conditions: Mus musculus, NIH3T3, 30 μM, 72 h, values <20% considered negligible, read-out: Growth inhibition (%) ± SEM, NIH/3T3
Documented inhibition at 30 µM across a set of compounds
Express the result in % but write the number alone.

Compound	Assay Value
COC(=O)[C@]1(C)CCC[C@@]2(C)C3CC[C@]4(O)C[C@@]3(CCC21)[C@@H](O)[C@]4(O)CN(C)Cc1ccccc1 (stereo partly shown)	89.3

## Task Reported inhibition at 30 µM for NIH/3T3 fibroblasts, given "COC(=O)[C@]1(C)CCC[C@@]2(C)[C@@H]3CCC4(O)C[C@@]3(CC[C@@H]21)[C@@H](O)[C@]4(O)CN[C@H](C)c1ccc(F)cc1" ?
## Result 90.5

## Task Look up inhibition at 30 µM with NIH/3T3 fibroblasts for this compound: COC(=O)[C@]1(C)CCC[C@@]2(C)C3CC[C@]4(O)C[C@@]3(CCC21)[C@@H](O)[C@]4(O)CNCc1ccc(OC)cc1 (stereo partly shown)
## Result 90.9

## Task Give inhibition at 30 µM (NIH/3T3 fibroblasts) of the following compound: COC(=O)[C@]1(C)CCC[C@@]2(C)C3CC[C@]4(O)C[C@@]3(CCC21)[C@@H](O)[C@]4(O)CN[C@@H](C)c1ccc2ccccc2c1 (stereo partly shown)
## Result 90.5

====

Experiment: Intestinal-specific parallel artificial membrane permeability assay (PAMPA-GI)
Assay type: in vitro ADME
Details: gradient pH system (pH donor 6.5 → pH acceptor 7.4) after 4 h, at 37 °C; mean ± S.E.M, n = 3
Observation Type: PAMPA-GI MR (membrane retention)

Solved cases below.
Molecule	Observation Type	Assay Value
CC[C@@H](NC[C@@]1(O)[C@H](O)[C@@]23CCC4[C@@](C)(CCC[C@@]4(C)C(=O)OC)C2CC[C@]1(O)C3)c1ccccc1 (some centres unmarked)	PAMPA-GI MR (membrane retention)	46.8 ± 3.3%
COC(=O)[C@]1(C)CCC[C@@]2(C)C3CC[C@]4(O)C[C@@]3(CCC21)[C@@H](O)[C@]41CN(Cc2ccccc2)CO1 (some centres unmarked)	PAMPA-GI MR (membrane retention)	2.7 ± 0.4%
COC(=O)[C@]1(C)CCC[C@@]2(C)C3CC[C@]4(O)C[C@@]3(CCC21)[C@@H](O)[C@]4(O)CNCc1ccc(F)cc1 (some centres unmarked)	PAMPA-GI MR (membrane retention)	63.8 ± 4.9%
COC(=O)[C@]1(C)CCC[C@@]2(C)C3CC[C@]4(O)C[C@@]3(CCC21)[C@@H](O)[C@]4(O)CN(C)Cc1ccccc1 (some centres unmarked)	PAMPA-GI MR (membrane retention)	67.3 ± 8.6%

Shift focus to the following entry.
## Task Requested read-out: PAMPA-GI MR (membrane retention). Entry: "COC(=O)[C@]1(C)CCC[C@@]2(C)[C@@H]3CCC4(O)C[C@@]3(CC[C@@H]21)[C@@H](O)[C@]4(O)CN[C@H](C)c1ccc(F)cc1"
## Result 22.4 ± 2.0%
